biological target: β2AR (Homo sapiens); construct: host or cells: HEK293 cells stably expressing (EA)-β-arrestin-2; assay: β-arrestin-2 recruitment assay (PathHunter enzyme fragment complementation), norepinephrine-stimulated; assay type: cell-based; conditions: arrestin recruitment stimulated by norepinephrine after preincubation with 30 μM of the test compound; read-out: attenuation of Emax (maximum efficacy of norepinephrine)
Sequence (P07550 whole entry, the tested form may be a part): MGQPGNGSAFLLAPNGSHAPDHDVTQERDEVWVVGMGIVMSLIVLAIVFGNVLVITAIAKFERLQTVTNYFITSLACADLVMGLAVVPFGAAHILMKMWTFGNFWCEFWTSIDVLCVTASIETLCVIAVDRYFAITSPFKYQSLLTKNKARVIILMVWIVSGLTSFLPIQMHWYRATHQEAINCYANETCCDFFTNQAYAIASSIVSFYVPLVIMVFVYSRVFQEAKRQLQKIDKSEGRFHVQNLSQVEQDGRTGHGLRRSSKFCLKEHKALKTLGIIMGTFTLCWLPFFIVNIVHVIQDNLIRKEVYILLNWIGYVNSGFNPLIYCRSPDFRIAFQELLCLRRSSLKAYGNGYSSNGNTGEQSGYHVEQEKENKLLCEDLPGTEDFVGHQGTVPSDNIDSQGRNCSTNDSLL
parameter: inhibition at 30 µM

Quick one: inhibition at 30 µM for Nc1nc(Nc2cccc(CCC(=O)OCC(O)CO)c2)nc2ccc(Br)cc12 (stereo not drawn) ?
< 30%

Follow-up item: `Nc1nc(Nc2ccccc2O)nc2cccc(Cl)c12`
< 30%

Follow-up item: `Nc1nc(Nc2ccccc2)nc2ccc(F)cc12`
< 30%

Follow-up item: `Nc1nc(Nc2ccccc2)nc2c(Br)cccc12`
31 to 70%

Follow-up item: `COC(=O)c1ccc(Nc2nc(N)c3c(F)cccc3n2)c(O)c1`
< 30%

Follow-up item: `CC(C)c1ccc2nc(Nc3ccccc3)nc(N)c2c1`
31 to 70%

Follow-up item: `Nc1nc(Nc2cccc(CCC(=O)O)c2)nc2ccc(Br)cc12`
< 30%

Follow-up item: `CNC(=O)c1ccc(Nc2nc(N)c3ccccc3n2)cc1`
< 30%

Follow-up item: `Nc1nc(Nc2ccccc2)nc2cc(Br)ccc12`
31 to 70%

Follow-up item: `Nc1nc(Nc2ccccc2)nc2ccc(Cl)cc12`
71 to 100%

Follow-up item: `Nc1nc(Nc2ccccc2)nc2c(Cl)cccc12`
31 to 70%

Follow-up item: `Nc1nc(Nc2ccccc2)nc2ccc(I)cc12`
71 to 100%

Follow-up item: `Nc1nc(Nc2ccccc2CO)nc2ccc(Br)cc12`
< 30%

Follow-up item: `Nc1nc(Nc2ccccc2)nc2cccc(Cl)c12`
31 to 70%

Follow-up item: `Brc1ccc2nc(Nc3ccccc3)ncc2c1`
31 to 70%
